Values from the supplement of paper PMC10065799

A collection of sequences and their measured phosphorylation enrichment
# Test system: Fer (mouse)
# assay-info: phosphorylation enrichment, bacterial display (enrichment ratio); higher = better substrate or ligand; peptides without Tyr show the background

Below, each entry is followed by its recorded phosphorylation enrichment result.
- input-sequence: "DAPVVYLGSFG [PRAG1_Y132_R137G]"
  phosphorylation enrichment: 0.475
- input-sequence: "SLEKGYELPDG [ACTC1_Y242_S241G]"
  phosphorylation enrichment: 0.436
- input-sequence: "QFPDVYAREEV [CRX_Y67_YF]"
  phosphorylation enrichment: 0.879
- input-sequence: "RSRSPYSPVLR [CDK13_Y399]"
  phosphorylation enrichment: 0.423
- input-sequence: "NLNGKYNKPRA [ANGPTL3_Y417]"
  phosphorylation enrichment: 0.372

# query: phosphorylation enrichment | item PFFASYPPSPD [GDAP2_Y491_T489A_YF] | system: Fer (mouse)
0.435

Recorded phosphorylation enrichment for REVPVYTDSEP [FAM120B_Y368] with Fer (mouse), please?
0.895

###

# system: Grb2 SH2 (UniProt P62993)
# Sequence (P62993 whole entry, looked up): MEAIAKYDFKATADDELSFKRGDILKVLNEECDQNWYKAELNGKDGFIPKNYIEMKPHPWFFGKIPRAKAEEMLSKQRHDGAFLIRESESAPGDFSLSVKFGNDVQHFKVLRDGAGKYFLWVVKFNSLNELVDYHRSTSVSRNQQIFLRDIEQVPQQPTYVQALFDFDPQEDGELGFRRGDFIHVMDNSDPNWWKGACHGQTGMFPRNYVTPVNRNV
# assay-info: SH2 binding enrichment of the phosphorylated peptide, bacterial display (enrichment ratio); higher = better substrate or ligand; peptides without Tyr show the background
Measured SH2 binding enrichment, listed per entry for reference.

- input-sequence: "WHHIFYNELRV [ACTG1_Y91_T89I]"
  system: "Grb2 SH2 (UniProt P62993)"
  measured-parameter: "SH2 binding enrichment"
  measured-result: 0.701
- input-sequence: "LNNIIYRVERA [CUX2_Y1470]"
  system: "Grb2 SH2 (UniProt P62993)"
  measured-parameter: "SH2 binding enrichment"
  measured-result: 1.13
- input-sequence: "PSTFRYERGSR [INPPL1_Y663_P659S_YF]"
  system: "Grb2 SH2 (UniProt P62993)"
  measured-parameter: "SH2 binding enrichment"
  measured-result: 0.811
- input-sequence: "QADVIYVNTQL [MERTK_Y872]"
  system: "Grb2 SH2 (UniProt P62993)"
  measured-parameter: "SH2 binding enrichment"
  measured-result: 1.26
- input-sequence: "PVDGEYFTLQI [TP53_Y327_L323V]"
  system: "Grb2 SH2 (UniProt P62993)"
  measured-parameter: "SH2 binding enrichment"
  measured-result: 0.785

Lookup: SH2 binding enrichment / Grb2 SH2 (UniProt P62993) / QGRQTYLPQPA [DDR2_Y813]
0.627

Which SH2 binding enrichment is reported with Grb2 SH2 (UniProt P62993) for this entry: AIIGIYILRDD [CDH23_Y2949] ?
1.47

Kindly state the measured SH2 binding enrichment obtained for VVLGSYDRLRV [IFT172_Y260] with Grb2 SH2 (UniProt P62993).
0.724

So what SH2 binding enrichment did QDEHGYISLCF [HSPB1_Y133_R136L] get with Grb2 SH2 (UniProt P62993)?
0.637

What measured SH2 binding enrichment is associated with QEGPEYWDRET [HLA-A_Y83_Q86R] on Grb2 SH2 (UniProt P62993)?
0.787

###

# system: Hck (UniProt P08631)
# Sequence (P08631 whole entry, looked up): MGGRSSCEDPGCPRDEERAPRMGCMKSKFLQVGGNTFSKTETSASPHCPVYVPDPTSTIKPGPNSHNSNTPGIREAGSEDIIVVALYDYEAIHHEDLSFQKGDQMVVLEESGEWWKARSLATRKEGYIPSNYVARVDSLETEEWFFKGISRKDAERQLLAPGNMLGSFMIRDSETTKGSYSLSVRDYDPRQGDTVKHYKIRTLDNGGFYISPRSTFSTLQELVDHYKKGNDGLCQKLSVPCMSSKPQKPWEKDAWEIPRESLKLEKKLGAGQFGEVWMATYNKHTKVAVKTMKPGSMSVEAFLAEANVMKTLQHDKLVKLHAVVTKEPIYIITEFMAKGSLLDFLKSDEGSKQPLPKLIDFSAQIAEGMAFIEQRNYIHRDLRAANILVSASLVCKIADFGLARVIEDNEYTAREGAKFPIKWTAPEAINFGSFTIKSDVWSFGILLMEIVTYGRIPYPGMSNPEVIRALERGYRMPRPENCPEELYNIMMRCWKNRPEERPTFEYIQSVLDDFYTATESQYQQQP
# assay-info: phosphorylation enrichment, bacterial display (enrichment ratio); higher = better substrate or ligand; peptides without Tyr show the background
measured-parameter: phosphorylation enrichment
// no unit, no text: just the number

Sample records with phosphorylation enrichment:
- input-sequence: "QDTSRYTVCNL [BIRC3_Y245_S248C]"
  measured-parameter: "phosphorylation enrichment"
  measured-result: 0.359
- input-sequence: "EFENSCIFDIN [GAB1_Y83_Y83C]"
  measured-parameter: "phosphorylation enrichment"
  measured-result: 0.406
- input-sequence: "CTTSHYNYMCN [TP53_Y234_I232S]"
  measured-parameter: "phosphorylation enrichment"
  measured-result: 0.563
- input-sequence: "PVDTYYDSTRG [DYNC2H1_Y2231_M2227V]"
  measured-parameter: "phosphorylation enrichment"
  measured-result: 1.31
- input-sequence: "ASPALYRLDLD [TRIL_Y352]"
  measured-parameter: "phosphorylation enrichment"
  measured-result: 0.617

Endpoint output: phosphorylation enrichment of ADDSYYTVRSA [ZAP70_Y493_A495V] . Value?
2.89

Bench note: what phosphorylation enrichment did LHQSTYQCFDV [SLC7A14_Y693_R695C_YF] show?
1.42

Tell me the measured phosphorylation enrichment of INMKEYCKKDY [NTN1_Y490_K489E] , please.
0.477

Requested field: phosphorylation enrichment. Item: QEGPEYWDRET [HLA-A_Y83_Q86R]
0.871

# input sequence: SGGMDYGMVGG [TNRC6B_Y1382] ; wanted: its phosphorylation enrichment
0.702

Given DNEALYDTCFR [TUBB2B_Y208_I210T] , state its recorded phosphorylation enrichment.
6.09

Data request, read-out phosphorylation enrichment, for LEGKEYRMSGE [KRT3_Y511_E509K]
0.409

Entry under review: KVPRHYDDPGK [FOXG1_Y246] . Reported phosphorylation enrichment?
0.481

Recorded phosphorylation enrichment for KPMDTYYDSTR [DYNC2H1_Y2230] , please?
1.13
